molecular target: Beta-2 adrenergic receptor (Homo sapiens) (UniProt P07550); experiment: Adrenergic beta2 receptor (ADRB2) small molecule agonists, cell-based qHTS assay (AID 1963593); conditions: CHO-ADRB2 cells, cAMP HTRF, 30 min; series mostly up to 92.4 µM
Sequence (P07550 whole entry, looked up): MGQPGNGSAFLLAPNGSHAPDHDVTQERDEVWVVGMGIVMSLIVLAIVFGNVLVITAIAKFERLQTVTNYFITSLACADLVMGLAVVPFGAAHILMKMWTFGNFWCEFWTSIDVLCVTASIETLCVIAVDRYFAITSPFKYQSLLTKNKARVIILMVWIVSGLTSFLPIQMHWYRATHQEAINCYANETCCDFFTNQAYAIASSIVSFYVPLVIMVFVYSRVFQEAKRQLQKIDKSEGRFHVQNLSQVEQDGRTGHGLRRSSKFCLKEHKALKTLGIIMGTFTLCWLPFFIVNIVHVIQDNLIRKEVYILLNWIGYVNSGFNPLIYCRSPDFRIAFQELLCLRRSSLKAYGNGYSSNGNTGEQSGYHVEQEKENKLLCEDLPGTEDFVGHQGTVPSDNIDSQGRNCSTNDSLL
Records with an inconclusive call do not appear. Activity calls are given as the source filed them. Calls come from the whole dose curve.
Outcome codes: 1 for active, -1 for inactive

| molecule | qualitative.label |
| --- | --- |
| Clc1ccc(C(Cl)(Cl)Cl)cc1Cl | -1 |
| CC(C)(C)OC(=O)c1ncn2c1[C@@H]1CCCN1C(=O)c1c(Br)cccc1-2 | -1 |
| C=CC(=O)OCC(COC(=O)C=C)(COC(=O)C=C)COC(=O)C=C | 1 |
| CCS(=O)(=O)c1cccnc1S(=O)(=O)NC(=O)Nc1nc(OC)cc(OC)n1 | -1 |
| COc1cccc2c1C(=O)c1c(O)c3c(c(O)c1C2=O)C[C@@](O)(C(=O)CO)CC3OC1CC(N2CCOC(OC)C2)C(O)C(C)O1 (stereo partly specified) | -1 |
| CC(C)(C)N(NC(=O)c1ccc(Cl)cc1)C(=O)c1ccccc1 | -1 |
| Oc1cccc(-c2ccccc2)c1 | -1 |
| C=CCOC(=O)C(C)(C)OC(=O)c1cc(-n2c(=O)cc(C(F)(F)F)n(C)c2=O)ccc1Cl | -1 |
| COP(=O)(OC)O/C(C)=C/C(=O)N(C)C | -1 |
| C[C@H]1CC[C@@H]2[C@@H](C)[C@H]3[C@H](C[C@H]4[C@@H]5CC=C6CC(O[C@@H]7O[C@H](CO)[C@H](O)[C@H](O[C@@H]8O[C@H](CO)[C@@H](O)[C@H](O)[C@H]8O)[C@H]7O[C@H]7O[C@@H](C)[C@H](O)[C@@H](O)[C@H]7O)CC[C@]6(C)[C@H]5CC[C@]34C)N2C1 (stereo partly specified) | -1 |
| c1ccc2c(c1)[nH]c1cnccc12 | -1 |

====

target: Muscarinic acetylcholine receptor M1 (Homo sapiens); experiment: Cholinergic receptor muscarinic 1 (CHRM1) small molecule agonists, cell-based qHTS assay (AID 1963589); settings: CHRM1-CHO cells, agonist mode, calcium flux fluorescence; series mostly up to 76.8 µM; note: nearly all actives have a fitted effect of over 35% in size
The source made the active and inactive calls. Calls follow the shape of the full dose curve. Bridge positions count the residues as written; N and C are the ends. Square brackets hold non-standard residues; d marks the D form. Peptide text beside a SMILES is read from it. hArg = N=C(N)NCCCC[C@H](N)C(=O)O; Mpa = O=C(O)CCS
Outcome codes: 1 (yes) = active, 0 (no) = inactive

| molecule | qualitative.label |
| --- | --- |
| c1ccc2c(c1)[nH]c1cnccc12 | 0 (no) |
| Clc1ccccc1-c1ccccc1Cl | 0 (no) |
| CCCCCCCCCCCCCN1CC(C)OC(C)C1 (stereo unspecified) | 0 (no) |
| S=C=NCCc1ccccc1 | 0 (no) |
| CC/C(=N\OC/C=C/Cl)C1=C(O)CC(C2CCOCC2)CC1=O (stereo unspecified) | 0 (no) |
| CN(C)S(=O)(=O)N(SC(F)(Cl)Cl)c1ccccc1 | 1 (yes) |
| Cc1ccc(OP(=O)(Oc2ccccc2)Oc2ccccc2)cc1 | 0 (no) |
| C=CC(=O)OCC(COC(=O)C=C)(COC(=O)C=C)COC(=O)C=C | 0 (no) |
| CCC1(C2=NCCN2)Cc2ccccc2O1 (stereo unspecified) | 0 (no) |
| O=C(NC(=O)c1cc(F)c(F)cc1Cl)Nc1cc(F)ccc1N1CCC(C(=O)O)CC1 | 0 (no) |
| CCC(C)Br (stereo unspecified) | 0 (no) |
| CC(C)[C@H](C(=O)OC(C#N)c1cccc(Oc2ccccc2)c1)c1ccc(OC(F)F)cc1 (stereo partly specified) | 0 (no) |
| C=CC(=C)C | 0 (no) |
| O=S1(=O)OC(c2cc(Br)c(O)c(Br)c2)(c2cc(Br)c(O)c(Br)c2)c2ccccc21 | 0 (no) |
| O=c1[nH]c2ccccc2n1C1CCNCC1 | 0 (no) |
| CC[C@H](O)C(C[C@H](C)N(C)C)(c1ccccc1)c1ccccc1 | 0 (no) |
| COP(=S)(OC)Oc1cc(Cl)c(Br)cc1Cl | 0 (no) |
| CC(O)C(=O)[O][Hg][c]1ccccc1 (stereo unspecified) | 1 (yes) |
| [As]#[In] | 0 (no) |
| NC(=O)[C@@H]1CSSCCC(=O)N[C@@H](CCCCN=C(N)N)C(=O)NCC(=O)N[C@@H](CC(=O)O)C(=O)N[C@@H](Cc2c[nH]c3ccccc23)C(=O)N2CCC[C@H]2C(=O)N1 ([Mpa][hArg]GDWPC-NH2; disulfide 1-7) | 0 (no) |
| CNC(=O)Oc1cc(C)cc(C(C)C)c1 | 0 (no) |
| Nc1ccc([N+](=O)[O-])cc1[N+](=O)[O-] | 0 (no) |
| N#CC(O)c1ccccc1 (stereo unspecified) | 0 (no) |
| CC(C)CP(=S)(S)CC(C)C | 0 (no) |
| NCCc1cc(O)c(O)cc1O | 0 (no) |
| CCCCOC(=O)c1ccccc1N | 0 (no) |
